test system: Pseudomonas aeruginosa PAO1 MB9798 (efflux+, IMP-1); settings: ratio MITC95 PA 9798/MITC95 PA 9799; imipenem at 2 μg/mL
QUANTITY NAME: Efflux ratio

- MOLECULE: "NC[C@@H](N)CNS(=O)(=O)c1ccc(-c2cnc(N)s2)c(-c2nn[nH]n2)c1S(N)(=O)=O"
  MEASURED TARGET: "Pseudomonas aeruginosa PAO1 MB9798 (efflux+, IMP-1)"
  QUANTITY NAME: "Efflux ratio"
  VALUE: 2.00
- MOLECULE: "Nc1nc2c(-c3ccc(S(=O)(=O)NCCC(N)CF)c(S(N)(=O)=O)c3-c3nnn[nH]3)cccc2s1.O=CO (stereo not shown)"
  MEASURED TARGET: "Pseudomonas aeruginosa PAO1 MB9798 (efflux+, IMP-1)"
  QUANTITY NAME: "Efflux ratio"
  VALUE: 1.00
- MOLECULE: "NC[C@@H](N)CNS(=O)(=O)c1ccc(-c2cccc3[nH]c(N)nc23)c(-c2nn[nH]n2)c1S(N)(=O)=O"
  MEASURED TARGET: "Pseudomonas aeruginosa PAO1 MB9798 (efflux+, IMP-1)"
  QUANTITY NAME: "Efflux ratio"
  VALUE: 1.00
- MOLECULE: "Cn1c(N)nc2c(-c3ccc(S(=O)(=O)N[C@@H]4CCNC4)c(S(N)(=O)=O)c3-c3nn[nH]n3)cccc21"
  MEASURED TARGET: "Pseudomonas aeruginosa PAO1 MB9798 (efflux+, IMP-1)"
  QUANTITY NAME: "Efflux ratio"
  VALUE: 1.00
- MOLECULE: "Nc1nc2c(-c3ccc(S(=O)(=O)NC4CCNCC4)c(S(N)(=O)=O)c3-c3nn[nH]n3)cccc2[nH]1"
  MEASURED TARGET: "Pseudomonas aeruginosa PAO1 MB9798 (efflux+, IMP-1)"
  QUANTITY NAME: "Efflux ratio"
  VALUE: 1.00
- MOLECULE: "Nc1ncc(-c2ccc(S(=O)(=O)N[C@H]3CNC[C@H]3N)c(S(N)(=O)=O)c2-c2nn[nH]n2)s1"
  MEASURED TARGET: "Pseudomonas aeruginosa PAO1 MB9798 (efflux+, IMP-1)"
  QUANTITY NAME: "Efflux ratio"
  VALUE: 2.00
- MOLECULE: "C[C@H](CN)NS(=O)(=O)c1ccc(-c2cccc3[nH]nnc23)c(-c2nn[nH]n2)c1S(N)(=O)=O"
  MEASURED TARGET: "Pseudomonas aeruginosa PAO1 MB9798 (efflux+, IMP-1)"
  QUANTITY NAME: "Efflux ratio"
  VALUE: 0.50

---

Examples of molecules with documented Serratia marcescens (IMP-1) MITC95 follow.
system: Serratia marcescens expressing IMP-1 (CL5741); format: cell-based; settings: with imipenem 1 μg/ml; 95% inhibition of bacterial growth

- MOLECULE: "Nc1nc2c(-c3ccc(S(=O)(=O)NC[C@@H]4CCNC4)c(S(N)(=O)=O)c3-c3nn[nH]n3)cccc2[nH]1 [Example 263]"
  UNIT OF MEASUREMENT: "µM"
  Serratia marcescens (IMP-1) MITC95: 0.7813
- MOLECULE: "NCc1nc2cc(-c3ccc(S(=O)(=O)N[C@@H]4CCNC4)c(S(N)(=O)=O)c3-c3nn[nH]n3)ccc2s1 [Example 275]"
  UNIT OF MEASUREMENT: "µM"
  Serratia marcescens (IMP-1) MITC95: 0.7813
- MOLECULE: "Nc1ccc(-c2ccc(S(=O)(=O)NC3CC(N)C3)c(S(N)(=O)=O)c2-c2nn[nH]n2)cn1 (stereo not shown) [Example 483]"
  UNIT OF MEASUREMENT: "µM"
  Serratia marcescens (IMP-1) MITC95: 0.7813
- MOLECULE: "NC[C@H](N)CNS(=O)(=O)c1ccc(-c2cnc(N)s2)c(-c2nn[nH]n2)c1S(N)(=O)=O [Example 372]"
  UNIT OF MEASUREMENT: "µM"
  Serratia marcescens (IMP-1) MITC95: 1.563
- MOLECULE: "Cc1cc(-c2ccc(S(=O)(=O)NC[C@@H](O)CN)c(S(N)(=O)=O)c2-c2nn[nH]n2)cnc1N [Example 468]"
  UNIT OF MEASUREMENT: "µM"
  Serratia marcescens (IMP-1) MITC95: 0.7813
- MOLECULE: "NCCNc1cc(-c2ccc(S(=O)(=O)NCCN)c(S(N)(=O)=O)c2-c2nn[nH]n2)ccn1 [Example 456]"
  UNIT OF MEASUREMENT: "µM"
  Serratia marcescens (IMP-1) MITC95: 0.7813
- MOLECULE: "C[C@@H](CN)NS(=O)(=O)c1ccc(-c2ccc(N)nc2)c(-c2nn[nH]n2)c1S(N)(=O)=O [Example 394]"
  UNIT OF MEASUREMENT: "µM"
  Serratia marcescens (IMP-1) MITC95: 1.563

---

test system: Pseudomonas aeruginosa PAO1 MB9798 (efflux+, IMP-1); conditions: ratio MITC95 PA 9798/MITC95 PA 9799; imipenem at 2 μg/mL
Friendly reminder: Efflux ratio below 1 is yes (1), at or above is no (0).

- COMPOUND: "NCCNS(=O)(=O)c1ccc(-c2cccc3sc(N)nc23)c(-c2nn[nH]n2)c1S(N)(=O)=O"
  ASSIGNED CATEGORY: "yes (1)"
- COMPOUND: "C[C@@H](N)CNS(=O)(=O)c1ccc(-c2cccc3[nH]c(N)nc23)c(-c2nn[nH]n2)c1S(N)(=O)=O"
  ASSIGNED CATEGORY: "yes (1)"
- COMPOUND: "NCCNS(=O)(=O)c1ccc(-c2cccc(SC[C@@H](O)CN)c2)c(-c2nn[nH]n2)c1S(N)(=O)=O"
  ASSIGNED CATEGORY: "no (0)"
- COMPOUND: "CC(CN1CCOCC1)NS(=O)(=O)c1ccc(-c2cccc3sc(N)nc23)c(-c2nnn[nH]2)c1S(N)(=O)=O (centres unmarked)"
  ASSIGNED CATEGORY: "no (0)"
- COMPOUND: "CN1CCC(CNS(=O)(=O)c2ccc(-c3cccc4sc(N)nc34)c(-c3nnn[nH]3)c2S(N)(=O)=O)C1.O=C(O)C(F)(F)F (centres unmarked)"
  ASSIGNED CATEGORY: "yes (1)"
- COMPOUND: "Nc1nc2c(-c3ccc(S(=O)(=O)N4CCC[C@H](N)C4)c(S(N)(=O)=O)c3-c3nnn[nH]3)cccc2s1"
  ASSIGNED CATEGORY: "no (0)"

---

Recorded measurements of Efflux ratio, one per entry
tested on: Pseudomonas aeruginosa PAO1 MB9798 (efflux+, IMP-1); conditions: ratio MITC95 PA 9798/MITC95 PA 9799; imipenem at 2 μg/mL

- COMPOUND: "Nc1nc2c(-c3ccc(S(=O)(=O)NCC4(CO)CC4)c(S(N)(=O)=O)c3-c3nnn[nH]3)cccc2s1 [Example 37]"
  MEASURED TARGET: "Pseudomonas aeruginosa PAO1 MB9798 (efflux+, IMP-1)"
  Efflux ratio: 1.00
- COMPOUND: "Nc1nc2c(-c3ccc(S(=O)(=O)NCC4(N)CC4)c(S(N)(=O)=O)c3-c3nn[nH]n3)cccc2s1 [Example 149]"
  MEASURED TARGET: "Pseudomonas aeruginosa PAO1 MB9798 (efflux+, IMP-1)"
  Efflux ratio: 1.00
- COMPOUND: "CN(CCc1ccncc1)S(=O)(=O)c1ccc(-c2cccc3sc(N)nc23)c(-c2nnn[nH]2)c1S(N)(=O)=O.O=C(O)C(F)(F)F [Example 100]"
  MEASURED TARGET: "Pseudomonas aeruginosa PAO1 MB9798 (efflux+, IMP-1)"
  Efflux ratio: 32.00
- COMPOUND: "Nc1nc2c(-c3ccc(S(=O)(=O)NCC4COCCN4)c(S(N)(=O)=O)c3-c3nnn[nH]3)cccc2s1.O=C(O)C(F)(F)F (stereo not drawn) [Example 96]"
  MEASURED TARGET: "Pseudomonas aeruginosa PAO1 MB9798 (efflux+, IMP-1)"
  Efflux ratio: 1.00
- COMPOUND: "Nc1nc2c(-c3ccc(S(=O)(=O)N[C@@H]4CN[C@@H](CO)C4)c(S(N)(=O)=O)c3-c3nnn[nH]3)cccc2s1 [Example 79]"
  MEASURED TARGET: "Pseudomonas aeruginosa PAO1 MB9798 (efflux+, IMP-1)"
  Efflux ratio: 0.50
- COMPOUND: "CN(C1CCS(=O)(=O)C1)S(=O)(=O)c1ccc(-c2cccc3sc(N)nc23)c(-c2nnn[nH]2)c1S(N)(=O)=O (stereo not drawn) [Example 41]"
  MEASURED TARGET: "Pseudomonas aeruginosa PAO1 MB9798 (efflux+, IMP-1)"
  Efflux ratio: 8.00

---

molecular target: IMP-1 (Serratia marcescens, UniProt P52699); assay type: biochemical; conditions: CCF2-FA substrate, 2 hours at 25° C.
Sequence (P52699 whole entry, looked up, species assumed): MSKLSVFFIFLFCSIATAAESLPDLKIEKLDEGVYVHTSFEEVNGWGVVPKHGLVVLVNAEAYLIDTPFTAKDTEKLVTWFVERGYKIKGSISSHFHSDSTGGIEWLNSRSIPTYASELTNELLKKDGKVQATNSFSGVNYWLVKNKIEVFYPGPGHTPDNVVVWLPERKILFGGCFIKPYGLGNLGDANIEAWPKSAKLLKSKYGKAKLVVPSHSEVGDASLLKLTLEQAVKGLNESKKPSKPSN

- LINE NOTATION: "NC[C@H](O)CNS(=O)(=O)c1ccc(-c2ccnc(N)c2)c(-c2nn[nH]n2)c1S(N)(=O)=O"
  IC50 / nM: 1.28

Each recorded value in this set is attributed to patent US10544130B2.
